Test system: A549
protocol: cells
particulars: Homo sapiens, A549, 48 h
Description: Antiproliferative activity against human A549 cells incubated for 48 hrs by CCK8 assay
pIC50: −log10 of the molar value.
# pIC50 >= 8 gives True, anything below gives False

// inclusive: pIC50 at least 8? input: COc1ccc(N(C)c2nc(Cl)nc3ccccc23)cc1
True

Okay, and COc1ccc(N(C)c2nc(N3CCCC3)nc3ccsc23)cc1 ?
False

Okay, and COc1ccc(/C=C\c2cc(OC)c(OC)c(OC)c2)cc1O [COMBRETASTATIN A4] ?
True

Okay, and COc1ccc(N(C)c2nc(NC3CCC3)nc3ccsc23)cc1 ?
False

Okay, and COc1cc(OC)cc(N(C)c2nc(Cl)nc3ccsc23)c1 ?
False

---

Test system: A2780
protocol: Antiproliferative activity against human A2780 cells incubated for 48 hrs by CCK8 assay
Format: functional, cell-based
particulars: A2780, 48 h
Lab note: compare IC50 with 70 nM, writing condition met if less and condition not met if equal or more.

Is IC50 strictly under 70 nM for the entry COc1ccc2c(c1)CCN2c1nc(Cl)nc2ccsc12 ?
condition not met

Okay, and COc1cc(N(C)c2nc(Cl)nc3ccsc23)cc(OC)c1OC ?
condition not met

Okay, and COc1ccc(N(C)c2nc(Cl)nc3ccccc23)cc1 ?
condition met

Okay, and CN(c1ccccc1)c1nc(Cl)nc2ccsc12 ?
condition not met

Okay, and COc1ccc(N(C)c2nc(C)nc3ccsc23)cc1 ?
condition met

Okay, and COc1ccc(N(C)c2ncnc3ccsc23)cc1 ?
condition not met

Okay, and COc1ccc(N(C)c2nc(NC3CCC3)nc3ccsc23)cc1 ?
condition not met

Okay, and CC(=O)O[C@H]1C(=O)[C@@]2(C)[C@H]([C@H](OC(=O)c3ccccc3)[C@]3(O)C[C@H](OC(=O)[C@H](O)[C@@H](NC(=O)c4ccccc4)c4ccccc4)C(C)=C1C3(C)C)[C@]1(OC(C)=O)CO[C@@H]1C[C@@H]2O [PACLITAXEL] ?
condition met

Okay, and COc1ccc(N(C)c2nc(Cl)nc3ccsc23)cc1 ?
condition met

Okay, and CN(c1ccc(OC(F)(F)F)cc1)c1nc(Cl)nc2ccsc12 ?
condition not met

Okay, and CN(c1ccc2c(c1)OCO2)c1nc(Cl)nc2ccsc12 ?
condition not met

Okay, and COc1ccc(N(C)c2nc(N3CCCC3)nc3ccsc23)cc1 ?
condition not met

Okay, and COc1ccc(N(C)c2nc(Cl)nc3ccn(C)c23)cc1 ?
condition met

Okay, and COc1ccc(N(C)c2nc(N3CCC3)nc3ccsc23)cc1 ?
condition not met

Okay, and COc1ccc2c(c1)CCCN2c1nc(Cl)nc2ccsc12 ?
condition met

Okay, and COc1ccc(Oc2nc(Cl)nc3ccsc23)cc1 ?
condition not met

Okay, and COc1ccc(N(C)c2nc(N)nc3ccsc23)cc1 ?
condition met

Okay, and COc1ccc(N(C)c2nc(Cl)nc3c2ccn3C)cc1 ?
condition not met

Okay, and COc1ccc(N(C)c2nc(Cl)nc3[nH]ccc23)cc1 ?
condition not met

Okay, and COc1cc(OC)cc(N(C)c2nc(Cl)nc3ccsc23)c1 ?
condition not met

Okay, and COc1ccc(N(C)c2nc(Cl)nc3ccsc23)cc1F ?
condition met

Okay, and COc1c(F)cc(N(C)c2nc(Cl)nc3ccsc23)cc1F ?
condition not met

Okay, and Cc1nn(C)c2ccc(N(C)c3nc(Cl)nc4ccsc34)cc12 ?
condition met

Each recorded value in this set is attributed to ChEMBL document CHEMBL5608184.
